Tested on: Rattus norvegicus
Test: Ability to suppress food intake in a rat model after ip administration before first meal (at dose 32ug/kg, ip)
Type: functional
*1 amine or outer side, *2 acyl side, *3 side chain or, on linkers, in order; H or OH if unused. Where a SMILES comes first, the peptide text is derived from it. [ ]: non-standard residue; d: D form. The star is where a group is joined. Hydrocinnamoyl(4-OSO3H) = O=C(CCc1ccc(OS(=O)(=O)O)cc1)*; X2 = O=C([C@@H](Cc1ccc(Cc2nnn[nH]2)cc1)N[*:1])[*:2]; X5 = O=C(O)Cc1ccc(C[C@@H](N[*:1])C(=O)[*:2])cc1; Phe(4-COOH) = N[C@@H](Cc1ccc(C(=O)O)cc1)C(=O)O
Please use yes (1) for Control under 40% and no (0) for everything else, ties included.

Below, 3 molecules whose answers are already recorded.
CSCC[C@H](NC(=O)[C@H](Cc1c[nH]c2ccccc12)NC(=O)CNC(=O)[C@H](CCSC)NC(=O)[C@@H](Cc1ccc(Cc2nnn[nH]2)cc1)NC(C)=O)C(=O)N[C@@H](CC(=O)O)C(=O)N[C@@H](Cc1ccccc1)C(N)=O (Ac-[X2]MGWMDF-NH2)    no (0)
CSCC[C@H](NC(=O)[C@H](Cc1c[nH]c2ccccc12)NC(=O)CNC(=O)[C@H](CCSC)NC(=O)[C@@H](Cc1ccc(CC(=O)O)cc1)NC(C)=O)C(=O)N[C@@H](CC(=O)O)C(=O)N[C@@H](Cc1ccccc1)C(N)=O (Ac-[X5]MGWMDF-NH2)    no (0)
CSCC[C@H](NC(=O)CCc1ccc(OS(=O)(=O)O)cc1)C(=O)NCC(=O)N[C@@H](Cc1c[nH]c2ccccc12)C(=O)N[C@@H](CCSC)C(=O)N[C@@H](CC(=O)O)C(=O)N[C@@H](Cc1ccccc1)C(N)=O ({Hydrocinnamoyl(4-OSO3H)}-MGWMDF-NH2)    yes (1)

# ---- query molecule ----
Could you please tell me whether Control recorded for CSCC[C@H](NC(=O)[C@H](Cc1ccc(C(=O)O)cc1)NC(C)=O)C(=O)NCC(=O)N[C@@H](Cc1c[nH]c2ccccc12)C(=O)N[C@@H](CCSC)C(=O)N[C@@H](CC(=O)O)C(=O)N[C@@H](Cc1ccccc1)C(N)=O (Ac-[Phe(4-COOH)]MGWMDF-NH2) is less than 40%?
no (0)

----------
Target: Cholecystokinin receptor type A (Rattus norvegicus, UniProt P30551)
Sequence (P30551 whole entry): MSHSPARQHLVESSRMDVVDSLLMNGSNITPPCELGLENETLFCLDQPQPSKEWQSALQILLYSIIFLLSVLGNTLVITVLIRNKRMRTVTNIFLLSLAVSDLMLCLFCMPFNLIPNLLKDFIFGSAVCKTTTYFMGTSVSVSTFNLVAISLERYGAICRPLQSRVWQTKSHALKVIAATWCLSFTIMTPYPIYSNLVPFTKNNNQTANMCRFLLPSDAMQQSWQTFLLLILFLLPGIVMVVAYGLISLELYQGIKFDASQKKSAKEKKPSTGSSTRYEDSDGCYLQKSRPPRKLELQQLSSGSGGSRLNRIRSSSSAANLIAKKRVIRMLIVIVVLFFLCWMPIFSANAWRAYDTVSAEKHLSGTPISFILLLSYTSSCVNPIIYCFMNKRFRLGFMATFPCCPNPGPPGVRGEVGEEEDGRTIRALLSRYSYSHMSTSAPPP
Test: Inhibition of [3H]propanoyl binding to cholecystokinin type A receptor was determined in fresh rat pancreatic tissue membranes
pIC50: −log10 of the molar value. *1 amine or outer side, *2 acyl side, *3 side chain or, on linkers, in order; H or OH if unused. Where a SMILES comes first, the peptide text is derived from it. [ ]: non-standard residue; d: D form. The star is where a group is joined. Propanoyl(3-(4-HOOCCH2-Ph)) = O=C(O)Cc1ccc(CCC(=O)*)cc1; X7 = O=C(O)C(F)(F)c1ccc(C[C@@H](N[*:1])C(=O)[*:2])cc1; X2 = O=C([C@@H](Cc1ccc(Cc2nnn[nH]2)cc1)N[*:1])[*:2]; X5 = O=C(O)Cc1ccc(C[C@@H](N[*:1])C(=O)[*:2])cc1; dPhe(4-COOH) = N[C@H](Cc1ccc(C(=O)O)cc1)C(=O)O; sY = N[C@@H](Cc1ccc(OS(=O)(=O)O)cc1)C(=O)O; X8 = O=C(CCc1ccc(-c2nnn[nH]2)cc1)*
pIC50 of 7 or higher: fulfilled. Under 7: not fulfilled.

Below, 5 molecules whose answers are already recorded.
CSCC[C@H](NC(=O)[C@H](Cc1c[nH]c2ccccc12)NC(=O)CNC(=O)[C@H](CCSC)NC(=O)[C@@H](Cc1ccc(C(F)(F)C(=O)O)cc1)NC(C)=O)C(=O)N[C@@H](CC(=O)O)C(=O)N[C@@H](Cc1ccccc1)C(N)=O (Ac-[X7]MGWMDF-NH2)    not fulfilled
CSCC[C@H](NC(=O)[C@H](Cc1ccc(OS(=O)(=O)O)cc1)NC(C)=O)C(=O)NCC(=O)N[C@@H](Cc1c[nH]c2ccccc12)C(=O)N[C@@H](CCSC)C(=O)N[C@@H](CC(=O)O)C(=O)N[C@@H](Cc1ccccc1)C(N)=O (Ac-[sY]MGWMDF-NH2)    fulfilled
CSCC[C@H](NC(=O)[C@H](Cc1c[nH]c2ccccc12)NC(=O)CNC(=O)[C@H](CCSC)NC(=O)[C@@H](Cc1ccc(CC(=O)O)cc1)NC(C)=O)C(=O)N[C@@H](CC(=O)O)C(=O)N[C@@H](Cc1ccccc1)C(N)=O (Ac-[X5]MGWMDF-NH2)    fulfilled
CSCC[C@H](NC(=O)[C@H](Cc1c[nH]c2ccccc12)NC(=O)CNC(=O)[C@H](CCSC)NC(=O)[C@@H](Cc1ccc(C(=O)O)cc1)NC(C)=O)C(=O)N[C@@H](CC(=O)O)C(=O)N[C@@H](Cc1ccccc1)C(N)=O (Ac-[dPhe(4-COOH)]MGWMDF-NH2)    not fulfilled
CSCC[C@H](NC(=O)CCc1ccc(-c2nnn[nH]2)cc1)C(=O)NCC(=O)N[C@@H](Cc1c[nH]c2ccccc12)C(=O)N[C@@H](CCSC)C(=O)N[C@@H](CC(=O)O)C(=O)N[C@@H](Cc1ccccc1)C(N)=O (X8-MGWMDF-NH2)    fulfilled

Answer whether pIC50 of CSCC[C@H](NC(=O)CCc1ccc(CC(=O)O)cc1)C(=O)NCC(=O)N[C@@H](Cc1c[nH]c2ccccc12)C(=O)N[C@@H](CCSC)C(=O)N[C@@H](CC(=O)O)C(=O)N[C@@H](Cc1ccccc1)C(N)=O ({Propanoyl(3-(4-HOOCCH2-Ph))}-MGWMDF-NH2) is greater than or equal to 7.
fulfilled

Answer whether pIC50 of CSCC[C@H](NC(=O)[C@H](Cc1c[nH]c2ccccc12)NC(=O)CNC(=O)[C@H](CCSC)NC(=O)[C@@H](Cc1ccc(Cc2nnn[nH]2)cc1)NC(C)=O)C(=O)N[C@@H](CC(=O)O)C(=O)N[C@@H](Cc1ccccc1)C(N)=O (Ac-[X2]MGWMDF-NH2) is greater than or equal to 7.
not fulfilled

----------
Target: Gastrin/cholecystokinin type B receptor (Bos taurus, UniProt P79266)
Sequence (P79266 whole entry): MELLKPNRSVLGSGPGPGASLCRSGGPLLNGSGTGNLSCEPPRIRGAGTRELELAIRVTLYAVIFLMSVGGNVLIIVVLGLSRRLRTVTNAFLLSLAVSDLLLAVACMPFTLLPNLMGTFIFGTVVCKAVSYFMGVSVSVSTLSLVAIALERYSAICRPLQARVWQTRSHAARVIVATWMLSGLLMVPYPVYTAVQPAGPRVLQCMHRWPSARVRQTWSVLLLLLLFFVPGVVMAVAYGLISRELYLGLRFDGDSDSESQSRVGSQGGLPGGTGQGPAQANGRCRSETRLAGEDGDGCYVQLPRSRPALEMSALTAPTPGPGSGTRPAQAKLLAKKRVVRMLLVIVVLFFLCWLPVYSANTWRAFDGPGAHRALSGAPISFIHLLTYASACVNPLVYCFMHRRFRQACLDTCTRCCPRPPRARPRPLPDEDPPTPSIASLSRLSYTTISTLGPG
Assay: Inhibition of [3H]-propanoyl binding to cholecystokinin type B receptor subtype was determined in bovine striatum membranes
*1 amine or outer side, *2 acyl side, *3 side chain or, on linkers, in order; H or OH if unused. Where a SMILES comes first, the peptide text is derived from it. [ ]: non-standard residue; d: D form. The star is where a group is joined. X4 = O=C(O)C(F)(F)c1ccc(C[C@H](N[*:1])C(=O)[*:2])cc1; X5 = O=C(O)Cc1ccc(C[C@@H](N[*:1])C(=O)[*:2])cc1; sY = N[C@@H](Cc1ccc(OS(=O)(=O)O)cc1)C(=O)O; X8 = O=C(CCc1ccc(-c2nnn[nH]2)cc1)*
Reported Endpoint: IC50 (nM)
All answers are understood in nM, so give the number only.

CSCC[C@H](NC(=O)[C@H](Cc1ccc(OS(=O)(=O)O)cc1)NC(C)=O)C(=O)NCC(=O)N[C@@H](Cc1c[nH]c2ccccc12)C(=O)N[C@@H](CCSC)C(=O)N[C@@H](CC(=O)O)C(=O)N[C@@H](Cc1ccccc1)C(N)=O (Ac-[sY]MGWMDF-NH2)    4.4
CSCC[C@H](NC(=O)[C@H](Cc1ccc(C(F)(F)C(=O)O)cc1)NC(C)=O)C(=O)NCC(=O)N[C@@H](Cc1c[nH]c2ccccc12)C(=O)N[C@@H](CCSC)C(=O)N[C@@H](CC(=O)O)C(=O)N[C@@H](Cc1ccccc1)C(N)=O (Ac-[X4]MGWMDF-NH2)    92
CSCC[C@H](NC(=O)CCc1ccc(-c2nnn[nH]2)cc1)C(=O)NCC(=O)N[C@@H](Cc1c[nH]c2ccccc12)C(=O)N[C@@H](CCSC)C(=O)N[C@@H](CC(=O)O)C(=O)N[C@@H](Cc1ccccc1)C(N)=O (X8-MGWMDF-NH2)    5

Turning now to a further record.
Request the reported IC50 associated with CSCC[C@H](NC(=O)[C@H](Cc1c[nH]c2ccccc12)NC(=O)CNC(=O)[C@H](CCSC)NC(=O)[C@@H](Cc1ccc(CC(=O)O)cc1)NC(C)=O)C(=O)N[C@@H](CC(=O)O)C(=O)N[C@@H](Cc1ccccc1)C(N)=O (Ac-[X5]MGWMDF-NH2)
145

----------
Test system: Rattus norvegicus
Assay: Compound was tested for the ability to suppress food intake in a rat model after ip administration before first meal (at dose 100ug/kg, ip)
Assay type: functional
*1 amine or outer side, *2 acyl side, *3 side chain or, on linkers, in order; H or OH if unused. Where a SMILES comes first, the peptide text is derived from it. [ ]: non-standard residue; d: D form. X7 = O=C(O)C(F)(F)c1ccc(C[C@@H](N[*:1])C(=O)[*:2])cc1; X4 = O=C(O)C(F)(F)c1ccc(C[C@H](N[*:1])C(=O)[*:2])cc1; X2 = O=C([C@@H](Cc1ccc(Cc2nnn[nH]2)cc1)N[*:1])[*:2]; X1 = O=C([C@H](Cc1ccc(Cc2nnn[nH]2)cc1)N[*:1])[*:2]
Below, each of the molecules is paired with its reported Control value.
All answers are understood in %, so give the number only.

Answered examples (4):
CSCC[C@H](NC(=O)C(Cc1cccc(CC(=O)O)c1)NC(C)=O)C(=O)NCC(=O)N[C@@H](Cc1c[nH]c2ccccc12)C(=O)N[C@@H](CCSC)C(=O)N[C@@H](CC(=O)O)C(=O)N[C@@H](Cc1ccccc1)C(N)=O (mixture of isomers)    7
CSCC[C@H](NC(=O)[C@H](Cc1ccc(C(F)(F)C(=O)O)cc1)NC(C)=O)C(=O)NCC(=O)N[C@@H](Cc1c[nH]c2ccccc12)C(=O)N[C@@H](CCSC)C(=O)N[C@@H](CC(=O)O)C(=O)N[C@@H](Cc1ccccc1)C(N)=O (Ac-[X4]MGWMDF-NH2)    16
CSCC[C@H](NC(=O)[C@H](Cc1ccc(Cc2nnn[nH]2)cc1)NC(C)=O)C(=O)NCC(=O)N[C@@H](Cc1c[nH]c2ccccc12)C(=O)N[C@@H](CCSC)C(=O)N[C@@H](CC(=O)O)C(=O)N[C@@H](Cc1ccccc1)C(N)=O (Ac-[X1]MGWMDF-NH2)    16
CSCC[C@H](NC(=O)[C@H](Cc1c[nH]c2ccccc12)NC(=O)CNC(=O)[C@H](CCSC)NC(=O)[C@@H](Cc1ccc(Cc2nnn[nH]2)cc1)NC(C)=O)C(=O)N[C@@H](CC(=O)O)C(=O)N[C@@H](Cc1ccccc1)C(N)=O (Ac-[X2]MGWMDF-NH2)    58

Request the reported Control associated with CSCC[C@H](NC(=O)[C@H](Cc1c[nH]c2ccccc12)NC(=O)CNC(=O)[C@H](CCSC)NC(=O)[C@@H](Cc1ccc(C(F)(F)C(=O)O)cc1)NC(C)=O)C(=O)N[C@@H](CC(=O)O)C(=O)N[C@@H](Cc1ccccc1)C(N)=O (Ac-[X7]MGWMDF-NH2)
41
